Target: Carbonic anhydrase (Methanosarcina thermophila)
Sequence (P40881 whole entry): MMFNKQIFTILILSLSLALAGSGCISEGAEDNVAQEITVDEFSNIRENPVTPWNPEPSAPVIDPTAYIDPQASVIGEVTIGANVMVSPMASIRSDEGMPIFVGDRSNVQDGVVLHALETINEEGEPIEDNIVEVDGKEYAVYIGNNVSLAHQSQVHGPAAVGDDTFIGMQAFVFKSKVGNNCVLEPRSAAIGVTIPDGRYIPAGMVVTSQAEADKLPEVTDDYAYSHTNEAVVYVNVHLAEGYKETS
// classify: if (Ki < 7 mM) class 1 else class 0

## Input Please state whether Ki is below 7 mM for "OB(O)c1ccccc1"
## Output class 1

## Input Would you kindly repeat that for Br [BROMIDE] ?
## Output class 0

## Input Would you kindly repeat that for NS(N)(=O)=O [SULFAMIDE] ?
## Output class 1

## Input What do you have for NS(=O)(=O)O [SULFAMATE] ?
## Output class 0

## Input Now this one: "O[B-](O)(O)c1ccccc1"
## Output class 1

## Input Entry "O=[N+]([O-])O" please
## Output class 0

## Input Another compound to look at: I [IODIDE]
## Output class 0

## Input Entry Cl [HYDROCHLORIC ACID] please
## Output class 0

## Input Same again, this time with S [HYDROGEN SULFIDE]
## Output class 1

---

The reader will find pKi measurements below, all made with Carbonic anhydrase 4 (Homo sapiens, UniProt P22748).
Sequence (P22748 whole entry): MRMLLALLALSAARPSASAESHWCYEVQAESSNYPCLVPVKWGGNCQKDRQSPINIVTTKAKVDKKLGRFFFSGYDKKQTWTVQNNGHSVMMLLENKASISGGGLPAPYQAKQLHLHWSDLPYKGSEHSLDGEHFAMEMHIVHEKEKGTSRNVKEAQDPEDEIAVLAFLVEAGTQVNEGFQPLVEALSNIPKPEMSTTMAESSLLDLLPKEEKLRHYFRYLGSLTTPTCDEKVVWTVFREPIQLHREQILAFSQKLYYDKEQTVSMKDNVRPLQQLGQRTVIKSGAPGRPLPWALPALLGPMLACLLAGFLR
Friendly reminder that pKi comes from taking -log10 of the concentration in mol/L.

## Input Returns the measured pKi for the input compound. Input: O=C(O)O [BICARBONATE]
## Output 1.36

## Input Same read-out for Cl [HYDROCHLORIC ACID] ?
## Output 1.44

## Input Then what about the compound O=S(=O)(O)O [SULFURIC ACID] ?
## Output 1.36

## Input Cool, now I [IODIDE]
## Output 1.96

## Input Also, Br [BROMIDE] please.
## Output 1.28

---

Give pKi for every item shown.
Target: Carbonic anhydrase (Methanobacterium thermoautotrophicum, UniProt Q50565)
Sequence (Q50565 whole entry): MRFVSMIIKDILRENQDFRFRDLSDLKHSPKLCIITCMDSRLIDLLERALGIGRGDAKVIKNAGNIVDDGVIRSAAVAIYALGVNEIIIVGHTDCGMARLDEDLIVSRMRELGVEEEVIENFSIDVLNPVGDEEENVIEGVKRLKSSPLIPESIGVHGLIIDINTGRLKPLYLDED
Parameters: species or system Methanothermobacter thermautotrophicus str. Delta H
Reminder that pKi means the negative base-10 logarithm of the concentration expressed in mol/L.

## Input Suppose we examine the compound "OB(O)c1ccccc1" ; what pKi value has been reported?
## Output 3.70

## Input Query "O=[N+]([O-])O" next
## Output 2.11

## Input Thanks! And "O=NO" ?
## Output 1.35

## Input Field entry: S [HYDROGEN SULFIDE]
## Output 3.15

## Input Can you handle NS(=O)(=O)O [SULFAMATE] next?
## Output 1.36

## Input Also "O[B-](O)(O)c1ccccc1" , if possible.
## Output 3.48

---

Molecular target: Carbonic anhydrase 1 (Homo sapiens, UniProt P00915)
Sequence (P00915 whole entry): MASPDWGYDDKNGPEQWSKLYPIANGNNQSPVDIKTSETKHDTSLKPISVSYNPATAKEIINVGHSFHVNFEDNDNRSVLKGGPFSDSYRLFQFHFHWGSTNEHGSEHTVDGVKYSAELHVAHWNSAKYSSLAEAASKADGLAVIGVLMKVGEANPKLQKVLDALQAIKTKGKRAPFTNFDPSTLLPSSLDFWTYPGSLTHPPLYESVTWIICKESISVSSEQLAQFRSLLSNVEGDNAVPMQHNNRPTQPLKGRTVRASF
readout-kind: Ki (mM)
Note: unit mM is implicit; provide only the numeric part.

## Input // returns reported Ki for input Br [BROMIDE]
## Output 4

## Input Okay, and OB(O)c1ccccc1 [PHENYLBORONIC ACID] ?
## Output 58.6

## Input Another compound: O=[N+]([O-])O [NITRIC ACID]
## Output 7

## Input Next: Cl [HYDROCHLORIC ACID]
## Output 6

## Input Okay, and NS(=O)(=O)O [SULFAMATE] ?
## Output 0.02

## Input And I [IODIDE] ?
## Output 0.3

## Input And what about the compound O[B-](O)(O)c1ccccc1 [OXO(PHENYL)-BORANEDIOL] ?
## Output 31.7

## Input Next entry: S [HYDROGEN SULFIDE]
## Output 0.0006

---

Kindly state pKi for each of the entries shown.
Target: Carbonic anhydrase (Methanobacterium thermoautotrophicum)
Test: Inhibitory constant against methanoarchaeon Methanobacterium thermoautotrophicum (Cab)
Parameters: species or system Methanothermobacter thermautotrophicus str. Delta H
Lab note — pKi values are minus log10 of concentrations in M.

## Input What does the record list as pKi for I [IODIDE] ?
## Output 1.88

## Input Next compound up: Br [BROMIDE]
## Output 1.38

## Input Moving on to Cl [HYDROCHLORIC ACID]
## Output 0.82
